log10(IC50) reference
system: X4 tropic HIV-1 NL4-3; settings: blocking X4 tropic HIV-1 NL4-3 infection
No end group written: not given here.
Remember, log10 of IC50, in µM.

A selection of reference data follows.
{"columns": ["sequence record", "recorded measurement"],
 "data": [
  ["IVRFTKKVPQVS [408I-419 Y411F, IVRFTKKVPQVS]", 0.59],
  ["IVRYTKKVPQVS [Derivative 408I-419, IVRYTKKVPQVS]", 0.39]
]}

Request: Looking for the measured log10(IC50) of LVRYTKKVPQVST [Derivative 408-420, LVRYTKKVPQVST] , can you help?
Result: 1.18
